Test system: B. subtilis
Field: label. Allowed values: Fulfilled (MIC < 30 µM) or Not fulfilled (MIC >= 30 µM).

Consider the molecule Cc1ccccc1NC(=O)CSc1nc2ccccc2n1C(=O)c1ccccc1 . Is its MIC strictly less than 30 µM?
Not fulfilled

Identify whether the molecule O=C(CSc1nc2ccccc2n1C(=O)c1ccccc1)Nc1ccc(F)cc1 records MIC below 30 µM.
Not fulfilled

Dear reviewer, please state whether Cc1ccc(NC(=O)CSc2nc3ccccc3n2C(=O)c2ccccc2)cc1 has MIC strictly beneath 30 µM.
Not fulfilled

Just wondering, is MIC of CC1=C(C(=O)O)N2C(=O)[C@@H](NC(=O)[C@H](N)c3ccc(O)cc3)[C@H]2SC1 [Cefadroxil, reference compound] below 30 µM?
Not fulfilled

Record O=C(CSc1nc2ccccc2n1C(=O)c1ccccc1)Nc1ccc(Br)cc1 : is its MIC strictly below 30 µM?
Fulfilled

Determine whether this molecule shows MIC lower than 30 µM (ties excluded): O=C(CSc1nc2ccccc2n1C(=O)c1ccccc1)Nc1ccccc1Br
Fulfilled

is_below(MIC, 30 µM) for O=C(CSc1nc2ccccc2n1C(=O)c1ccccc1)Nc1ccccc1F ?
Not fulfilled

Problem: For the molecule O=C(CSc1nc2ccccc2n1C(=O)c1ccccc1)Nc1cc(Cl)ccc1Cl , is MIC under 30 µM?
Fulfilled

Criterion: MIC strictly below 30 µM. Is it met by O=C(CSc1nc2ccccc2n1C(=O)c1ccccc1)Nc1ccccc1 ?
Not fulfilled

MIC under 30 µM? Item: O=C(CSc1nc2ccccc2n1C(=O)c1ccccc1)Nc1cccc([N+](=O)[O-])c1
Fulfilled

Report whether reported MIC is lower than 30 µM (strictly) for O=C(CSc1nc2ccccc2n1C(=O)c1ccccc1)Nc1cccc(Br)c1
Fulfilled

Hello, is MIC of the following molecule strictly smaller than 30 µM? O=C(CSc1nc2ccccc2n1C(=O)c1ccccc1)Nc1ccc(Cl)cc1[N+](=O)[O-]
Fulfilled

MIC strictly < 30 µM for this molecule? Cc1cccc(NC(=O)CSc2nc3ccccc3n2C(=O)c2ccccc2)c1
Not fulfilled

* * *

Tested on: C. albicans
Experimental Details: microbe, parasite or virus in culture
Applied Conditions: Candida albicans, 48 h, read-out: MIC C. albicans
What MIC was measured for each of the following?
Your answer should be a plain number; it is taken to be in µM.

What does the record list as MIC for Cc1cccc(C)c1NC(=O)CSc1nc2ccccc2n1C(=O)c1ccccc1 [Compound 13] ?
15

Which MIC is listed for Cc1ccccc1NC(=O)CSc1nc2ccccc2n1C(=O)c1ccccc1 [Compound 16] ?
16

# get_value(readout='MIC', item= O=C(CSc1nc2ccccc2n1C(=O)c1ccccc1)Nc1cccc(Br)c1 [Compound 8] )
13

Request the reported MIC associated with Cc1cccc(NC(=O)CSc2nc3ccccc3n2C(=O)c2ccccc2)c1 [Compound 19]
16

What does the record list as MIC for O=C(CSc1nc2ccccc2n1C(=O)c1ccccc1)Nc1cccc(Cl)c1 [Compound 5] ?
15

Would you kindly share the measured MIC for O=C(CSc1nc2ccccc2n1C(=O)c1ccccc1)Nc1ccccc1Cl [Compound 4] ?
15

Bench note: what MIC did O=C(CSc1nc2ccccc2n1C(=O)c1ccccc1)Nc1ccc(Br)cc1 [Compound 9] show?
13

Data request, read-out MIC, for O=C(CSc1nc2ccccc2n1C(=O)c1ccccc1)Nc1cccc([N+](=O)[O-])c1 [Compound 10]
15

Which MIC is listed for O=C(CSc1nc2ccccc2n1C(=O)c1ccccc1)Nc1ccccc1F [Compound 2] ?
15

I have this molecule here, O=C(CSc1nc2ccccc2n1C(=O)c1ccccc1)Nc1ccccc1 [Compound 1] , and I need its recorded MIC.
32

What value of measured MIC is listed for Cc1ccc(NC(=O)CSc2nc3ccccc3n2C(=O)c2ccccc2)c(C)c1 [Compound 20] ?
15

Which MIC value is on record for O=C(CSc1nc2ccccc2n1C(=O)c1ccccc1)Nc1ccc(F)cc1 [Compound 3] ?
15

Look up MIC for this molecule: O=C(CSc1nc2ccccc2n1C(=O)c1ccccc1)Nc1ccc(Cl)cc1 [Compound 15]
30

MIC lookup needed for COc1ccc(NC(=O)CSc2nc3ccccc3n2C(=O)c2ccccc2)cc1 [Compound 18] , thanks.
15

Look up MIC: O=C(CSc1nc2ccccc2n1C(=O)c1ccccc1)Nc1ccc(Cl)cc1[N+](=O)[O-] [Compound 11]
13

// MIC lookup, key: O=C(CSc1nc2ccccc2n1C(=O)c1ccccc1)Nc1ccccc1Br [Compound 7]
27

Requested read-out: MIC. Entry: OC(Cn1cncn1)(Cn1cncn1)c1ccc(F)cc1F [Fluconazole, reference compound]
470

Looking for the measured MIC of COc1cccc(NC(=O)CSc2nc3ccccc3n2C(=O)c2ccccc2)c1 [Compound 14] , can you help?
30

* * *

Tested on: B. cereus
Experimental Details: MBC by subculturing
Format: cell-based
Applied Conditions: Bacillus cereus; read-out: MBC B. cereus
Metric: MBC

Name the recorded MBC for Cc1ccccc1NC(=O)CSc1nc2ccccc2n1C(=O)c1ccccc1 [Compound 16] .
> 50 µg/mL

Looking for the measured MBC of Cc1ccc(NC(=O)CSc2nc3ccccc3n2C(=O)c2ccccc2)c(C)c1 [Compound 20] , can you help?
> 50 µg/mL

For the compound Cc1cccc(NC(=O)CSc2nc3ccccc3n2C(=O)c2ccccc2)c1 [Compound 19] , what MBC is on record?
> 50 µg/mL
